# study.system: T1, CD7 on cells (K562-CD7 positive cells; KG-1a-GFP-Luc; CCRF-CEM) (UniProt P09564 26-240, limits assumed)
# T1 sequence (looked up): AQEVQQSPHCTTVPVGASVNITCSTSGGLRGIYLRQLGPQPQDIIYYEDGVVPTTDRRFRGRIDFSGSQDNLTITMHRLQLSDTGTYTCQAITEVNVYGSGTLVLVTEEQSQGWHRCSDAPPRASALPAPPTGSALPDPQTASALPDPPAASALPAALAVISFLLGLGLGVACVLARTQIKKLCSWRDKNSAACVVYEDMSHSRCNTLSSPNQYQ
# experiment.description: cell-based or functional assay
Kindly supply the reported killing ratio, CAR-T cells on KG-1a-GFP-Luc, E:T=3:1, 4 h, luciferase values for the records listed here.
Number only, in %; omit the unit.

Give its killing ratio, CAR-T cells on KG-1a-GFP-Luc, E:T=3:1, 4 h, luciferase value. Item: VHH06 single VHH CAR (other) QVQLQESGGGLVQAGGSLRLSCAASGRTFSSYNMGWFRQAPGAEREFVAAISRGGGSTYYADSVKGRFTISRDNAKNTVYLQMNSLRPEDTAVYYCADSGARAYSGSYLDFGSWGQGTQVTVSSTTPAPRPPTPAPTIASQPLSLRPEACRPAAGGAVHTRGLDFACDIYIWAPLAGTCGVLLLSLVITLYCKRGRKKLLYIFKQPFMRPVQTTQEEDGCSCRFPEEEEGGCELRVKFSRSADAPAYKQGQNQLYNELNLGRREEYDVLDKRRGRDPEMGGKPRRKNPQEGLYNELQKDKMAEAYSEIGMKGERRRGKGHDGLYQGLSTATKDTYDALHMQALPPR
62.2

Give its killing ratio, CAR-T cells on KG-1a-GFP-Luc, E:T=3:1, 4 h, luciferase value. Item: VHH10 single VHH CAR (other) QVQLQESGGGLVQTGGSLRLSCEASERTFSSNAVGWFRQAPGKEREFVAAITWSVGTTYYADSVKGRFTISRDNAKNTVYLQMNSLKPEDTAVYYCAASGARHYSGSYLDFGSWGQGTQVTVSSTTPAPRPPTPAPTIASQPLSLRPEACRPAAGGAVHTRGLDFACDIYIWAPLAGTCGVLLLSLVITLYCKRGRKKLLYIFKQPFMRPVQTTQEEDGCSCRFPEEEEGGCELRVKFSRSADAPAYKQGQNQLYNELNLGRREEYDVLDKRRGRDPEMGGKPRRKNPQEGLYNELQKDKMAEAYSEIGMKGERRRGKGHDGLYQGLSTATKDTYDALHMQALPPR
91.4

Give its killing ratio, CAR-T cells on KG-1a-GFP-Luc, E:T=3:1, 4 h, luciferase value. Item: VHH19 single VHH CAR (other) QVQLQESGGGLVQPGGSLRLSCTASGRAFSMYVMGWFRQAPGKEREFVSTISASGGMTYYADSVKGRFTISRDNAKNTVYLEMNSLKPEDTAVYYCAAEYLGNLRHFRGDHWGKGTQVTVSSTTPAPRPPTPAPTIASQPLSLRPEACRPAAGGAVHTRGLDFACDIYIWAPLAGTCGVLLLSLVITLYCKRGRKKLLYIFKQPFMRPVQTTQEEDGCSCRFPEEEEGGCELRVKFSRSADAPAYKQGQNQLYNELNLGRREEYDVLDKRRGRDPEMGGKPRRKNPQEGLYNELQKDKMAEAYSEIGMKGERRRGKGHDGLYQGLSTATKDTYDALHMQALPPR
61.7

Give its killing ratio, CAR-T cells on KG-1a-GFP-Luc, E:T=3:1, 4 h, luciferase value. Item: VHH12 single VHH CAR (other) QVQLQESGGGLVQPGGSLRLSCAASGSTLDYYAIGWFRQAPGKEREGISCISNSGGMTNYADSVKGRFTISRDNAKNTVYLQMNSLKPEDTAVYYCAAGPAWSYCSGYVPAGLDKFGSWGQGTQVTVSSTTPAPRPPTPAPTIASQPLSLRPEACRPAAGGAVHTRGLDFACDIYIWAPLAGTCGVLLLSLVITLYCKRGRKKLLYIFKQPFMRPVQTTQEEDGCSCRFPEEEEGGCELRVKFSRSADAPAYKQGQNQLYNELNLGRREEYDVLDKRRGRDPEMGGKPRRKNPQEGLYNELQKDKMAEAYSEIGMKGERRRGKGHDGLYQGLSTATKDTYDALHMQALPPR
78.2
